tested on: PFTK1; construct: gene CDK14; settings: concentration: 1 μM,replicates: in singlicate; n = 1;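 note: KINOMEscan kinase panel screen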

compound	%Inh, %
O=C(Nc1ccccc1)c1cccc(Oc2ccc3nccn3n2)c1	38
OCCn1cc(-c2cnc3nnn(Cc4ccc5ncccc5c4)c3n2)cn1	0
Cn1ccc2ncnc(Oc3ccc(NC(=O)Nc4cc(C(C)(C)C)on4)c(Cl)c3)c21	0
Cl.Nc1n[nH]c2cc(-c3ccccn3)ccc12 [GSK2189892]	6
C[C@@H]1CNc2c(sc3ccc4nc(-c5ccc(O)cc5)ccc4c23)C(=O)N1	8
Cn1ccc2ncnc(Oc3ccc(NC(=O)Nc4cccc(C(F)(F)F)c4)c(Cl)c3)c21	10
COc1ccc(Nc2nccc(N3CCC(NC(=O)c4cccc(C#N)c4)C3)n2)cc1 (stereo not drawn) [GSK1379730]	0
CCCC(=O)Nc1n[nH]c2ncccc12 [SB-601436]	9
CCN1CCN(CCCC(=O)Nc2n[nH]c3nc(-c4ccc(O)cc4)c(Br)cc23)CC1 [SB-731579]	31

###

Listing of entries alongside the reported %Inh.
system: ULK1; settings: concentration: 1 μM,replicates: in singlicate; n = 1
measured_metric: %Inh

chemical_structure	measured_metric	readout_value
Cn1ccc2ncnc(Oc3ccc(NC(=O)Nc4cccc(C(F)(F)F)c4)c(F)c3)c21	%Inh	0%
C[C@@H](Oc1cc(-n2cnc3cc(-c4cnn(C)c4)ccc32)sc1C(N)=O)c1ccccc1Cl	%Inh	14%
O=C(Nc1n[nH]c2cc(-c3ccco3)ccc12)C1CC1	%Inh	11%
COC(=O)c1cccc(NC(=O)NC2CCN(c3ccnc(NCc4ccc(F)cc4)n3)CC2)c1	%Inh	20%
Cn1ccc2ncnc(Oc3ccc(NC(=O)Nc4cccc(C(F)(F)F)c4)c(Cl)c3)c21	%Inh	0%
C[C@@H](Oc1cc(-n2cnc3cc(-c4ccncc4)ccc32)sc1C(N)=O)c1ccccc1Cl	%Inh	32%
CCn1c(-c2nonc2N)nc2cncc(CNC3CCNCC3)c21.Cl	%Inh	17%
c1ccc(Oc2ccc(Nc3ccnc4ccc(-c5ccccn5)cc34)cc2)cc1	%Inh	49%

###

system: MARK4; conditions: concentration: 1 μM,replicates: in singlicate; n = 1

molecule	%Inh
COc1cc(Nc2nccc(N3CCC(NC(=O)c4cccc(C#N)c4)C3)n2)cc(OC)c1OC (centres unmarked)	100%
Cn1ccc2ncnc(Oc3ccc(NC(=O)Nc4cc(C(C)(C)C)on4)c(Cl)c3)c21	14%
CN(c1ccccc1CNc1nc(Nc2ccc3c(c2)CC(=O)N3)ncc1C(F)(F)F)S(C)(=O)=O	67%
N#Cc1cccc(C(=O)NC2CCN(c3ccnc(Nc4ccc(F)cc4)n3)C2)c1 (centres unmarked)	16%
Cn1ccc2ncnc(Oc3ccc(NC(=O)Nc4cnn(C(C)(C)C)c4)c(Cl)c3)c21	16%
Cn1ccc2ncnc(Oc3ccc(NC(=O)Nc4cncc(C(F)(F)F)c4)c(Cl)c3)c21	11%
Cc1ccc(Nc2ccnc(Nc3ccc4c(c3)CS(=O)(=O)C4)n2)cc1O.Cl	5%
COc1cc2ncn(-c3cc(OCC4CCCCC4)c(C(N)=O)s3)c2cc1OC	26%

###

system: BTK; settings: concentration: 1 μM,replicates: in singlicate; n = 1

chemical_structure	%Inh (%)
Cc1cccc2c(-c3ccncc3)c(-c3ccc(F)cc3)nn12.Cl	0
CCOC(=O)N1CCC(n2cnc(-c3ccc(F)cc3)c2-c2ccnc(N)n2)CC1	32
C[C@@H]1CNc2c(sc3ccc4nc(-c5ccc(O)cc5)ccc4c23)C(=O)N1	0
CN(c1ccc2c(c1)nc(NCc1ccc(F)cc1)n2C)c1ccnc(Nc2ccc(CS(C)(=O)=O)cc2)n1.Cl	0
O=C(NOCC1CC1)c1cc(Br)c(F)c(F)c1Nc1ccc(I)cc1Cl	0
OCCn1cc(-c2cnc3nnn(Cc4ccc5ncccc5c4)c3n2)cn1	0
O=C(Nc1ccc(Oc2ccc3nc(NC(=O)C4CC4)cn3n2)c(F)c1)c1cccn(-c2ccccc2)c1=O	0
Cn1ccc2ncnc(Oc3ccc(NC(=O)Nc4cccc(C(F)(F)F)c4)c(F)c3)c21	30
